- Tested on: NCI-H522 lung
- test.details: NCI tumour cell line growth inhibition, 48 h; in the data active = GI50 below about 0.43 µM; inactive = the rest
Hello, when you answer, please use one of the following outcomes: active, inactive

Call for entry CC(=O)OC1Oc2ccccc2-c2oc(=O)c(-c3cc4ccc(N(C)C)cc4oc3=O)cc21 (stereo unspecified) : inactive

Recorded test outcome, item CCN(CC)c1ccc(C(=N)c2ccc(N(CC)CC)cc2)cc1 active

// param item: O=C(CCl)Nc1ccc(Cl)cc1 ; yields the recorded call inactive

Dear all, I need the recorded test outcome for CC(C)c1ccc(C(=O)Nc2sc3c(c2C(N)=O)CCC(=O)C3)cc1 , thank you. active

Kindly provide the recorded test outcome for the following compound: Cc1cc(C)c(C(=O)CC(=O)c2cccnc2)c(C)c1 inactive

What was the test verdict on CCOC(=O)c1c(CN2CCN(c3ccccc3)CC2)n(-c2ccccc2)c2cc(Br)c(O)cc12 ? inactive

For CCN(CC)c1sc(N(CC)CC)c2c1SSSSS2 , what call appears in the results of this test? active

Tell me the assay call for Cc1ccc(C(=NN=C(N)N)c2ccc(C)cc2)cc1 please. active

In this assay, the call recorded for COc1ccc(C(=O)COc2cccc(/C=C3\COc4ccc5ccccc5c4C3=O)c2)cc1 was what? inactive

Outcome? CC1CN1CC(O)C(O)CN1CC1C (stereo unspecified) inactive

Status in this test for COc1cc(NC(=O)c2cc(O)c(CC=C(C)C)c(O)c2)cc2c1O[C@]1(C)CC[C@@H](O)C(C)(C)[C@H]1C2 ? inactive

---

- Tested on: MDA-MB-435
- test.details: NCI tumour cell line growth inhibition, 48 h
Provide the recorded TGI for the entries that follow.
Field format: number, assumed µM, no unit text.

Provide measured TGI value, entry: CN1CCCC2C(c3ccccc3)C(C3=NCCCC3)C(c3ccccc3)CC21 (centres undefined) 36.6

Fill in TGI for record O=C1c2c(Br)sc(Br)c2C(NC(=O)C(F)(F)F)C1O (centres undefined) 54.3

// Input: O=c1[nH]c2cccc([N+](=O)[O-])c2c(=O)n1-c1ccc(Cl)cc1 . Output its TGI only. 25.5

Report TGI, nothing else, for this compound: O=C1CC(Br)c2c(Br)sc(Br)c21 (centres undefined) 39.1

Tell us which TGI value is on record for O=C(CSc1ncccn1)N/N=C/c1ccccc1OCc1ccccc1 31.5

Provide TGI value for the following compound: CC(=O)OC1Oc2ccccc2-c2oc(=O)c(-c3cc4ccc(N(C)C)cc4oc3=O)cc21 (centres undefined) 46.8

Specify reported TGI for the compound shown: CC/C=C\C[C@@H]1C/C=C2/C(=O)C=C[C@H]2C/C=C\CCCC(=O)O1 0.845

// fetch TGI given entry CCC#CC[C@H]1C/C=C2/C(=O)C=C[C@@H]2C/C=C\CCCC(=O)O1 2.18

Check the records and state TGI for NC(N)=NCCCn1c2c(c3ccccc3c1=O)C(=O)c1ccccc1-2 71.5

Quote TGI reported for CN(C)CCCn1c2c(c3ccccc3c1=O)C(=O)c1ccccc1-2 please. 12

---

Please respond with reported TGI for every item in the list.
- Test system: U251 CNS
- test.details: NCI tumour cell line growth inhibition, 48 h

Annotate the compound CC1=NN(c2ccccc2)C2(C1)C(Cl)C(=O)N2c1nc2ccccc2s1 (stereo not drawn) with its measured TGI. > 100 µM

Indicate the recorded TGI value for this compound: CC(C)OC(=O)c1ccc(NCC2=CC(=O)C=CC2=O)cc1 31.3 µM

Give the reported value of TGI for this record: COc1ccc2c(c1)CCC1C3(CCCC21C)OCCO3 (stereo not drawn) 29.4 µM

State, in one line, measured TGI of CN(C)CCNC(=O)c1cccc(C(=O)Nc2ccccc2)c1[N+](=O)[O-] > 100 µM

Tell me TGI reported for NCc1ccc(-c2ccc(CN)s2)s1 > 100 µM

Annotate the compound CC(NC(=O)OCc1ccccc1)NC(=O)OC(C)(C)C (stereo not drawn) with its measured TGI. > 100 µM

Consider the compound CC(C)(C)c1cc(S(=O)(=O)O)c2oc(-c3ccccc3)cc(=O)c2c1 . State its measured TGI. > 100 µM

Kindly indicate its recorded TGI. Item: O=c1[nH]c(=O)n(C/C=C/CO)nc1Br > 100 µM

Quickly give me recorded TGI for CC1CN1CC(O)C(O)CN1CC1C (stereo not drawn) > 64.8 µM

Provide only the value of recorded TGI for COc1ccc(CNc2ccn(C3OC(CO)C(O)C3O)c(=O)n2)cc1 (stereo not drawn) > 100 µM

Using the record for CN1CCC23c4c5ccc(Oc6nnnn6-c6ccccc6)c4OC2c2[nH]c4ccccc4c2CC3(O)C1C5 (stereo not drawn) , state its measured TGI. 3.65 µM

Annotate the compound Cc1ccc(Nc2nc3c(s2)C(=O)c2ccccc2C3=O)c(C)c1 with its measured TGI. 42.5 µM

Please look at this compound and report its TGI: Clc1nc(Cl)c2ncn(Cc3cccc(COc4cccc(OCc5cccc(Cn6cnc7c(Cl)nc(Cl)nc76)c5)c4)c3)c2n1 > 100 µM

Give recorded TGI. O=C1C2=Cc3ccccc3CCN2c2ccccc21 > 31.6 µM

State its TGI: CCS(=O)(=O)c1ccc(OC)c(Nc2ncc(-c3cccc(OC)c3)o2)c1 > 25 µM

Read off the recorded TGI for CC12Nc3c(Cl)cc(Cl)cc3N1C(=O)c1ccccc12 (stereo not drawn) > 100 µM

Provide only the value of recorded TGI for Cc1sc2nc(N(C)C)oc(=O)c2c1C > 100 µM

# return recorded TGI for entry CC(C)C[C@H]1[C@@H](OCc2ccccc2)COS(=O)(=O)N1[C@H](C)c1ccccc1 > 67.7 µM

// Input: C1=C(CC2=C[P+](c3ccccc3)(c3ccccc3)C=C(c3ccccc3)O2)OC(c2ccccc2)=C[P+]1(c1ccccc1)c1ccccc1 . Output its TGI only. 1.23 µM

State its TGI: CCOC(=O)/C(C#N)=C/Nc1c(C)n(C)n(-c2ccccc2)c1=O > 100 µM

Quote TGI reported for O=C1CSC(c2ccccc2)N1c1nc2cc3sc(N4C(=O)CSC4c4ccccc4)nc3cc2s1 (stereo not drawn) please. > 100 µM

Return TGI for the following compound: Cn1cc(C(=O)c2ccccc2)ccc1=O > 100 µM

Find the measured TGI of COC(=O)/C(C)=N/NC(=S)SC and report it. > 100 µM
